meta.source: ChEMBL document CHEMBL4177717

Molecular target: UniProt Q969T7
Sequence (whole entry): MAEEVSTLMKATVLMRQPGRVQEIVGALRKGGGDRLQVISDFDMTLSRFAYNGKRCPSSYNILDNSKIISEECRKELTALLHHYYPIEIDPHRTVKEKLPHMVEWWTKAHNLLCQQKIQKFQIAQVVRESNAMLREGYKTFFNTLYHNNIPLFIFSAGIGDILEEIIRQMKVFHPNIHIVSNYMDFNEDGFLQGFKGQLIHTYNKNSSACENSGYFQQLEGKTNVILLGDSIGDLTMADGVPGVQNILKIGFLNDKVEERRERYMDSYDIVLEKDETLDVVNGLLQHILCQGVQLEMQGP
Assay: Substrate activity at recombinant His6/SUMO-tagged human cN3B (1 to 300 residues) expressed in Escherichia coli BL21(DE3) RIL assessed as compound dephosphorylation at 100 uM up to 150 mins by HPLC method
The source made the active and inactive calls. The rule behind the calls is not given here.
Answer with one of the outcomes yes (1) for active, no (0) for inactive

How was C[n+]1cn([C@@H]2O[C@H](COP(=O)([O-])O)[C@@H](O)[C@H]2O)c2nc(N)[nH]c(=O)c21 classified in this test?
yes (1)

I'd appreciate the recorded outcome for C[n+]1cn([C@@H]2O[C@H](Cn3cc(CCP(=O)([O-])O)nn3)[C@@H](O)[C@H]2O)c2nc(N)[nH]c(=O)c21 from this test.
no (0)

// return assay outcome for C[n+]1cn([C@@H]2O[C@H](Cn3cc(P(=O)([O-])O)nn3)[C@@H](O)[C@H]2O)c2nc(N)[nH]c(=O)c21
no (0)

Lab log entry: C[n+]1cn([C@@H]2O[C@H](Cn3cc(CP(=O)([O-])O)nn3)[C@@H](O)[C@H]2O)c2nc(N)[nH]c(=O)c21 — outcome as called in the assay?
no (0)

In this assay, the call recorded for C[n+]1cn([C@@H]2O[C@H](Cn3cc(OCP(=O)([O-])O)nn3)[C@@H](O)[C@H]2O)c2nc(N)[nH]c(=O)c21 was what?
yes (1)
